Values compiled from PubChem BioAssay AID1020.

System: glucose-6-phosphate dehydrogenase [Leuconostoc mesenteroides]
Test: bacterial G6PDH enzyme inhibition, coupled readout – biochemical, Leuconostoc mesenteroides enzyme, counter-screen for G6PDH-coupled screening assays (AID 1020)
Conditions: Purified L. mesenteroides G6PDH, diaphorase/resazurin coupled fluorescence, 45 min; at 5 µM; stronger effect = higher value
Screen size: about 200,000 compounds; about 240 (0.12%) were called active. The sample holds actives, similar compounds and a random draw of the others, so the mix is not that of the screen.
MEASUREMENT_LABEL: inhibition (%)
Respond with the bare value in %.

Check out these entries, answers already filled in.
COMPOUND | inhibition, %
CCOC(=O)C1=C(C)OC(N)=C(C#N)C1c1cncc(-c2ccc(F)cc2)c1 (stereo not given) | 14.8
Cc1ccc(SCCC(=O)Nc2cc(C)on2)cc1 | 6.5
CC(=O)Oc1cc2c(C(=O)NCCN3CCOCC3)c(C)oc2c2ccccc12 | 51
O=C(Nc1ccc(N2CCN(C(=O)c3cccs3)CC2)cc1)c1cccnc1Cl | 5.3
Cc1nc(N)c(Br)c(C)c1Br | 4

Prompt line: Fill blank: measured inhibition of the compound COC(=O)c1c(NC(=O)COC(=O)[C@@H](NS(=O)(=O)c2ccccc2)C(C)C)sc2c1CCC2 is ____.
Response line: -20.8

Prompt line: Fill blank: measured inhibition of the compound O=C(NCCN1CCOCC1)c1cc(Sc2cccc(Cl)c2)nc2ccccc12 is ____.
Response line: -13.7

Prompt line: Fill blank: measured inhibition of the compound CC[N+]1(CC)CC2=Cc3ccccc3CC2C1 (stereo not given) is ____.
Response line: 0.9

Prompt line: Fill blank: measured inhibition of the compound COc1ccc([C@H]2[C@H](C(C)=O)N3N=Cc4ccccc4C3C23C(=O)OC(C)(C)OC3=O)cc1 (stereo not given in full) is ____.
Response line: 4

Prompt line: Fill blank: measured inhibition of the compound Cc1ccc(NC(=O)OCCNC(=O)c2ccncc2)cc1 is ____.
Response line: 7.9
